Test system: Rattus norvegicus
assay.method.text: Toxicity in […] normotensive Wistar rat assessed as mean arterial pressure at 40 mg/kg, ip after 45 mins (reference value: 94.83 +/- 0.943 mmHg)
Format: organism-based, Artery
Set-up: dose 40 mg/kg, route intraperitoneal
assay.conditions: in vivo, 0.75 h
measurement.kind: Activity (mmHg)
Please respond with the number in mmHg and leave the unit unwritten.

Reference set, count: 8
{"columns": ["compound", "tested.on", "Activity [mmHg]"],
 "data": [
  ["CCN(CC)CC(O)CN1C(=O)/C(=C\\c2ccccc2)S/C1=N\\c1ccccc1 (centres undefined)", "Rattus norvegicus", 63.51],
  ["CN1CCN(CC(O)CN2C(=O)/C(=C\\c3ccccc3)S/C2=N\\c2ccccc2)CC1 (centres undefined)", "Rattus norvegicus", 64.51],
  ["O=C1/C(=C\\c2ccccc2)S/C(=N\\c2ccccc2)N1CC(O)CN1CCN(Cc2ccccc2)CC1 (centres undefined)", "Rattus norvegicus", 72.57],
  ["O=C1/C(=C\\c2ccccc2)S/C(=N\\c2ccccc2)N1CC(O)CN1CCOCC1 (centres undefined)", "Rattus norvegicus", 62.69],
  ["O=C1/C(=C\\c2ccccc2)S/C(=N\\c2ccccc2)N1CC(O)CN1CCN(C2CCCCC2)CC1 (centres undefined)", "Rattus norvegicus", 64.01],
  ["O=C1/C(=C\\c2ccccc2)S/C(=N\\c2ccccc2)N1CC(O)CN1CCCCC1 (centres undefined)", "Rattus norvegicus", 64.69],
  ["O=C1/C(=C\\c2ccccc2)S/C(=N\\c2ccccc2)N1CC(O)CN1CCCC1 (centres undefined)", "Rattus norvegicus", 69.69],
  ["CCCN(CCC)CC(O)CN1C(=O)/C(=C\\c2ccccc2)S/C1=N\\c1ccccc1 (centres undefined)", "Rattus norvegicus", 72.37]
]}

Please find the next compound below.
Param item: O=C1/C(=C\c2ccccc2)S/C(=N\c2ccccc2)N1CC(O)CN1CCN(c2ccccc2)CC1 (centres undefined) ; param system: Rattus norvegicus; output Activity: 79.26

====

Test system: Rattus norvegicus
assay.method.text: Antiarrhythmic activity in barium chloride-induced Wistar rat assessed as increase in mortality time at 40 mg/kg, ip administered 60 mins before barium chloride challenge (reference value: 682.8 +/- 9.656 secs)
Assay type: functional, Heart
assay.conditions: route intraperitoneal
measurement.kind: Time (s)
Please respond with the number in s and leave the unit unwritten.

{"columns": ["molecule", "numeric.value"],
 "data": [
  ["CCCN(CCC)CC(O)CN1C(=O)/C(=C\\c2ccccc2)S/C1=N\\c1ccccc1 (stereo not given)", 938.4],
  ["O=C1/C(=C\\c2ccccc2)S/C(=N\\c2ccccc2)N1CC(O)CN1CCCC1 (stereo not given)", 918.8],
  ["O=C1/C(=C\\c2ccccc2)S/C(=N\\c2ccccc2)N1CC(O)CN1CCN(c2ccccc2)CC1 (stereo not given)", 964.4],
  ["O=C1/C(=C\\c2ccccc2)S/C(=N\\c2ccccc2)N1CC(O)CN1CCCCC1 (stereo not given)", 886.9]
]}

Form: molecule = CC(C)N1CCN(CC(O)CN2C(=O)/C(=C\c3ccccc3)S/C2=N\c2ccccc2)CC1 (stereo not given) ; Time = 1213.7

====

System: Rattus norvegicus
assay.method.text: Toxicity in anaesthetized-Wistar rat assessed as Q-T ECG interval at 40 mg/kg, ip measured immediately at 0 min (reference value: 78.8 +/- 1.030 ms)
Assay type: organism-based
Parameters: dose 40 mg/kg, route intraperitoneal
assay.conditions: in vivo, 0 h
measurement.kind: Activity (min)
Please respond with the number in min and leave the unit unwritten.

{"columns": ["molecule", "unit", "Activity"],
 "data": [
  ["O=C1/C(=C\\c2ccccc2)S/C(=N\\c2ccccc2)N1CC(O)CN1CCCC1 (centres undefined)", "min", 70.6],
  ["CC(C)N1CCN(CC(O)CN2C(=O)/C(=C\\c3ccccc3)S/C2=N\\c2ccccc2)CC1 (centres undefined)", "min", 76],
  ["O=C1/C(=C\\c2ccccc2)S/C(=N\\c2ccccc2)N1CC(O)CN1CCNCC1 (centres undefined)", "min", 80.2],
  ["O=C1/C(=C\\c2ccccc2)S/C(=N\\c2ccccc2)N1CC(O)CN1CCCCC1 (centres undefined)", "min", 72.7],
  ["O=C1/C(=C\\c2ccccc2)S/C(=N\\c2ccccc2)N1CC(O)CN1CCC(C(O)(c2ccccc2)c2ccccc2)CC1 (centres undefined)", "min", 72.9],
  ["O=C1/C(=C\\c2ccccc2)S/C(=N\\c2ccccc2)N1CC(O)CN1CCN(c2ccccc2)CC1 (centres undefined)", "min", 73.5]
]}

Form: molecule = CCCCN(CCCC)CC(O)CN1C(=O)/C(=C\c2ccccc2)S/C1=N\c1ccccc1 (centres undefined) ; Activity = 67

Form: molecule = O=C1/C(=C\c2ccccc2)S/C(=N\c2ccccc2)N1CC(O)CN1CCN(C2CCCCC2)CC1 (centres undefined) ; Activity = 72.8

Form: molecule = CCCN(CCC)CC(O)CN1C(=O)/C(=C\c2ccccc2)S/C1=N\c1ccccc1 (centres undefined) ; Activity = 72.5

====

System: Rattus norvegicus
assay.method.text: Toxicity in […] normotensive Wistar rat assessed as mean arterial pressure at 40 mg/kg, ip measured immediately at 0 min (reference value: 94.21 +/- 2.065 mmHg)
Format: organism-based, Artery
Parameters: dose 40 mg/kg, route intraperitoneal
assay.conditions: in vivo, 0 h
The entries below come with measured Activity values attached.
A bare number is not enough; add the unit after it.

{"columns": ["compound", "measurement.kind", "result"],
 "data": [
  ["O=C1/C(=C\\c2ccccc2)S/C(=N\\c2ccccc2)N1CC(O)CN1CCN(Cc2ccccc2)CC1 (centres undefined)", "Activity", "95.09 mmHg"],
  ["CN1CCN(CC(O)CN2C(=O)/C(=C\\c3ccccc3)S/C2=N\\c2ccccc2)CC1 (centres undefined)", "Activity", "91.93 mmHg"],
  ["O=C1/C(=C\\c2ccccc2)S/C(=N\\c2ccccc2)N1CC(O)CN1CCOCC1 (centres undefined)", "Activity", "92.99 mmHg"],
  ["O=C1/C(=C\\c2ccccc2)S/C(=N\\c2ccccc2)N1CC(O)CN1CCN(c2ccccc2)CC1 (centres undefined)", "Activity", "94.56 mmHg"],
  ["O=C1/C(=C\\c2ccccc2)S/C(=N\\c2ccccc2)N1CC(O)CN1CCNCC1 (centres undefined)", "Activity", "92.33 mmHg"]
]}

Please find the next compound below.
Form: compound = O=C1/C(=C\c2ccccc2)S/C(=N\c2ccccc2)N1CC(O)CN1CCC(C(O)(c2ccccc2)c2ccccc2)CC1 (centres undefined) ; Activity = 91.39 mmHg

====

Tested on: Rattus norvegicus
assay.method.text: Toxicity in anesthetized-normotensive Wistar rat assessed as heart rate at 40 mg/kg, ip after 60 mins (reference value: 314.96 +/- 9.442 bpm)
Type: organism-based
Set-up: dose 40 mg/kg, route intraperitoneal
assay.conditions: in vivo, 1 h
measurement.kind: Activity (bpm)
Please respond with the number in bpm and leave the unit unwritten.

{"columns": ["compound", "numeric.value"],
 "data": [
  ["O=C1/C(=C\\c2ccccc2)S/C(=N\\c2ccccc2)N1CC(O)CN1CCN(Cc2ccccc2)CC1 (centres undefined)", 312.21]
]}

Param item: O=C1/C(=C\c2ccccc2)S/C(=N\c2ccccc2)N1CC(O)CN1CCN(C2CCCCC2)CC1 (centres undefined) ; param system: Rattus norvegicus; output Activity: 303.42

Param item: CCCN(CCC)CC(O)CN1C(=O)/C(=C\c2ccccc2)S/C1=N\c1ccccc1 (centres undefined) ; param system: Rattus norvegicus; output Activity: 312.43

Param item: CN1CCN(CC(O)CN2C(=O)/C(=C\c3ccccc3)S/C2=N\c2ccccc2)CC1 (centres undefined) ; param system: Rattus norvegicus; output Activity: 302.28

Param item: O=C1/C(=C\c2ccccc2)S/C(=N\c2ccccc2)N1CC(O)CN(c1ccccc1)c1ccccc1 (centres undefined) ; param system: Rattus norvegicus; output Activity: 302.92

Param item: CC(C)N1CCN(CC(O)CN2C(=O)/C(=C\c3ccccc3)S/C2=N\c2ccccc2)CC1 (centres undefined) ; param system: Rattus norvegicus; output Activity: 302.92

Param item: O=C1/C(=C\c2ccccc2)S/C(=N\c2ccccc2)N1CC(O)CN1CCCC1 (centres undefined) ; param system: Rattus norvegicus; output Activity: 309.32

Param item: CCN(CC)CC(O)CN1C(=O)/C(=C\c2ccccc2)S/C1=N\c1ccccc1 (centres undefined) ; param system: Rattus norvegicus; output Activity: 312.28

Param item: O=C1/C(=C\c2ccccc2)S/C(=N\c2ccccc2)N1CC(O)CN1CCOCC1 (centres undefined) ; param system: Rattus norvegicus; output Activity: 308.42

====

System: Rattus norvegicus
assay.method.text: Toxicity in anaesthetized-Wistar rat assessed as QRS ECG interval at 40 mg/kg, ip measured immediately at 0 min (reference value: 19.6 +/- 1.142 ms)
Assay type: organism-based
Parameters: dose 40 mg/kg, route intraperitoneal
assay.conditions: in vivo, 0 h
The entries below come with measured Activity values attached.
Please respond with the number in min and leave the unit unwritten.

Form: compound = O=C1/C(=C\c2ccccc2)S/C(=N\c2ccccc2)N1CC(O)CN1CCN(Cc2ccccc2)CC1 (stereo not given) ; Activity = 23.4

Form: compound = O=C1/C(=C\c2ccccc2)S/C(=N\c2ccccc2)N1CC(O)CN1CCNCC1 (stereo not given) ; Activity = 20.8

Form: compound = CCCN(CCC)CC(O)CN1C(=O)/C(=C\c2ccccc2)S/C1=N\c1ccccc1 (stereo not given) ; Activity = 22.8

Form: compound = O=C1/C(=C\c2ccccc2)S/C(=N\c2ccccc2)N1CC(O)CN1CCC(C(O)(c2ccccc2)c2ccccc2)CC1 (stereo not given) ; Activity = 22.4

Form: compound = O=C1/C(=C\c2ccccc2)S/C(=N\c2ccccc2)N1CC(O)CN(c1ccccc1)c1ccccc1 (stereo not given) ; Activity = 20.3
